experiment: Stability of solids; type: physicochemical; settings: solid; 100° C., 48 hours; read-out: Loss of bioactivity on storage at elevated temperatures
MEASUREMENT_KIND: degraded at 48 h

Query string: Endpoint output: degraded at 48 h of N[C@@H](C(=O)N[C@@H]1C(=O)N2C(C(=O)O)=C(CSc3c[nH]nn3)CS[C@H]12)c1ccc(O)cc1 . Value?
Result string: < 12%

----------
test: Mouse blood levels after oral administration; type: in vivo; conditions: mouse, blood, po, 100 mg/kg, Example 2; PO 100 mg./kg.; 1 hr; Tween-CMC; 16 or 32 mice; read-out: Blood Levels
MEASUREMENT_KIND: concentration at 1 h (ng/mL)
Express it in ng/mL; write the number only.

Query string: Endpoint output: concentration at 1 h of O=C(O)C1=C(CSc2cnn[nH]2)CS[C@@H]2[C@H](N3C(=O)[C@@H](c4ccc(O)cc4)NC3c3ccc(S(=O)(=O)O)o3)C(=O)N12 (some centres unmarked) . Value?
Result string: 45100

Shift focus to the following entry.
Query string: Endpoint output: concentration at 1 h of O=C(O)COc1ccccc1C1N[C@H](c2ccc(O)cc2)C(=O)N1[C@@H]1C(=O)N2C(C(=O)O)=C(CSc3cnn[nH]3)CS[C@H]12 (some centres unmarked) . Value?
Result string: 44600

----------
assay: Urinary recovery after IM administration to rats; format: in vivo; details: rat, urine, 50 mg/kg, IM 50 mg./kg., 6-24 hr, read-out: Urinary Recovery, Percentage of Administered Dose Recovered
MEASUREMENT_KIND: dose excreted at 24 h (%)
Express it in %; write the number only.

Known dose excreted at 24 h results, listed for orientation:
Query string: Endpoint output: dose excreted at 24 h of O=C(O)COc1ccccc1C1N[C@H](c2ccc(O)cc2)C(=O)N1[C@@H]1C(=O)N2C(C(=O)O)=C(CSc3cnn[nH]3)CS[C@H]12 (stereo partly shown) . Value?
Result string: 2.4

Query string: Endpoint output: dose excreted at 24 h of O=C(O)C1=C(CSc2cnn[nH]2)CS[C@@H]2[C@H](N3C(=O)[C@@H](c4ccc(O)cc4)NC3c3ccc(S(=O)(=O)O)o3)C(=O)N12 (stereo partly shown) . Value?
Result string: 2.6

Query string: Endpoint output: dose excreted at 24 h of O=C(O)C1=C(CSc2cnn[nH]2)CS[C@@H]2[C@H](N3C(=O)[C@@H](c4ccc(O)cc4)NC3c3ccccc3S(=O)(=O)O)C(=O)N12 (stereo partly shown) . Value?
Result string: 2.4

Shift focus to the following entry.
Query string: Endpoint output: dose excreted at 24 h of N[C@@H](C(=O)N[C@@H]1C(=O)N2C(C(=O)O)=C(CSc3cnn[nH]3)CS[C@H]12)c1ccc(O)cc1 [BL-S640, reference compound] . Value?
Result string: 3.3

----------
test: Mouse blood levels after oral administration; assay type: in vivo; conditions: mouse, blood, po, 100 mg/kg, Example 2; PO 100 mg./kg.; 0.5 hr; Tween-CMC; 16 or 32 mice; read-out: Blood Levels
Listing: concentration at 0.5 h of selected molecules
Express it in ng/mL; write the number only.

Query string: Endpoint output: concentration at 0.5 h of O=C(O)C1=C(CSc2cnn[nH]2)CS[C@@H]2[C@H](N3C(=O)[C@@H](c4ccc(O)cc4)NC3c3ccc(S(=O)(=O)O)o3)C(=O)N12 (some centres unmarked) . Value?
Result string: 49800

Continuing:
Query string: Endpoint output: concentration at 0.5 h of O=C(O)COc1ccccc1C1N[C@H](c2ccc(O)cc2)C(=O)N1[C@@H]1C(=O)N2C(C(=O)O)=C(CSc3cnn[nH]3)CS[C@H]12 (some centres unmarked) . Value?
Result string: 46500
